biological target: c-Src SH2; assay: SH2 binding enrichment of the phosphorylated peptide, bacterial display (enrichment ratio); higher = better substrate or ligand; peptides without Tyr show the background;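 also: peptide library displayed on the E. coli surface as eCPX fusions, selected cells deep-sequenced, score is each peptide's frequency after selection divided by its frequency in the input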
readout.type: SH2 binding enrichment

[
  {
    "biosequence": "VSVVDYVEPSP [TXNRD2_Y70_A66S]",
    "SH2 binding enrichment": 0.58
  },
  {
    "biosequence": "TLNVRHESVQA [CEACAM7_Y236_Y236H]",
    "SH2 binding enrichment": 0.579
  },
  {
    "biosequence": "KQLFAYKMLMA [TMC2_Y209_YF]",
    "SH2 binding enrichment": 1.01
  },
  {
    "biosequence": "NDKLCYEVSSP [CDH13_Y66_R65C]",
    "SH2 binding enrichment": 0.413
  },
  {
    "biosequence": "MKALGYFAVVT [OPA1_Y498]",
    "SH2 binding enrichment": 0.488
  },
  {
    "biosequence": "GFQPDYGQPAG [SYP_Y278_YF]",
    "SH2 binding enrichment": 0.56
  },
  {
    "biosequence": "SQSPHYFRSGR [GPATCH8_Y1038]",
    "SH2 binding enrichment": 0.394
  },
  {
    "biosequence": "IGVDSYSVCKR [RPS6KA3_Y433_G431D]",
    "SH2 binding enrichment": 0.971
  }
]

1: SKAYAYVHFDS [PABPC5_Y149_G146A]
2: GEIQEYGAPLD [ABCC1_Y1508_S1512L]
Identify the entry with the larger SH2 binding enrichment. Options: 1 and 2 Answer by quoting the chosen item's label.
1
(1: 4.66, 2: 0.454)
